Origin of measurements: patent US11174268B2

# maps each entry to its pIC50
- System: NaV1.6 (Homo sapiens (Human), UniProt Q9UQD0)
- Assay remarks: Sodium Influx Assay (Flux), NaV1.6
- Format: cell-based
- Measurement setup: Trex HEK293 cells, ANG2 dye, inactivated state
Counter-ions that a name gives are not always drawn.
# pIC50 is unitless: minus log10 of the molar concentration; print number only

>>> measured_number("C[C@H](Sc1cc(F)c(S(=O)(=O)Nc2nccs2)cc1Cl)c1ccccc1 [Example 125]")
5.76
>>> measured_number("O=S(=O)(Nc1nccs1)c1cc(Cl)c(NCc2cccc3ccncc23)cc1F [Example 61]")
7.68
>>> measured_number("C[C@H](Nc1ccc(S(=O)(=O)Nc2cscn2)cc1Cl)c1ccccc1 [Example 24]")
5.39
>>> measured_number("Cc1c(NCc2c(F)cccc2CN2CCC2)ccc(S(=O)(=O)Nc2ccon2)c1F [Example 315, 2,2,2-trifluoroacetate]")
6.57
>>> measured_number("O=S(=O)(Nc1ccncn1)c1cc(Cl)c(NC2(c3cc(F)ccc3F)CC2)cc1F [Example 241]")
5.63

Q: State its pIC50 for this molecule: O=S(=O)(Nc1cscn1)c1c(F)cc(NCc2c(F)cccc2CN2CC(O)(C(F)(F)F)C2)cc1F [Example 176, formate]
Result: 6.17

Q: State its pIC50 for this molecule: CC(CNc1ccc(S(=O)(=O)Nc2ncns2)cc1Cl)c1ccccc1 (centres unmarked) [Example 34]
Result: 5.90

Q: State its pIC50 for this molecule: O=S(=O)(Nc1cccc(F)n1)c1cc(Cl)c(NCc2c(F)cccc2CN2CCC2)cc1F [Example 138]
Result: 6.82

* * *

- System: NaV1.5 (Homo sapiens (Human), UniProt Q14524)
- Sequence (Q14524 other isoform, or with tags, fused parts or gaps): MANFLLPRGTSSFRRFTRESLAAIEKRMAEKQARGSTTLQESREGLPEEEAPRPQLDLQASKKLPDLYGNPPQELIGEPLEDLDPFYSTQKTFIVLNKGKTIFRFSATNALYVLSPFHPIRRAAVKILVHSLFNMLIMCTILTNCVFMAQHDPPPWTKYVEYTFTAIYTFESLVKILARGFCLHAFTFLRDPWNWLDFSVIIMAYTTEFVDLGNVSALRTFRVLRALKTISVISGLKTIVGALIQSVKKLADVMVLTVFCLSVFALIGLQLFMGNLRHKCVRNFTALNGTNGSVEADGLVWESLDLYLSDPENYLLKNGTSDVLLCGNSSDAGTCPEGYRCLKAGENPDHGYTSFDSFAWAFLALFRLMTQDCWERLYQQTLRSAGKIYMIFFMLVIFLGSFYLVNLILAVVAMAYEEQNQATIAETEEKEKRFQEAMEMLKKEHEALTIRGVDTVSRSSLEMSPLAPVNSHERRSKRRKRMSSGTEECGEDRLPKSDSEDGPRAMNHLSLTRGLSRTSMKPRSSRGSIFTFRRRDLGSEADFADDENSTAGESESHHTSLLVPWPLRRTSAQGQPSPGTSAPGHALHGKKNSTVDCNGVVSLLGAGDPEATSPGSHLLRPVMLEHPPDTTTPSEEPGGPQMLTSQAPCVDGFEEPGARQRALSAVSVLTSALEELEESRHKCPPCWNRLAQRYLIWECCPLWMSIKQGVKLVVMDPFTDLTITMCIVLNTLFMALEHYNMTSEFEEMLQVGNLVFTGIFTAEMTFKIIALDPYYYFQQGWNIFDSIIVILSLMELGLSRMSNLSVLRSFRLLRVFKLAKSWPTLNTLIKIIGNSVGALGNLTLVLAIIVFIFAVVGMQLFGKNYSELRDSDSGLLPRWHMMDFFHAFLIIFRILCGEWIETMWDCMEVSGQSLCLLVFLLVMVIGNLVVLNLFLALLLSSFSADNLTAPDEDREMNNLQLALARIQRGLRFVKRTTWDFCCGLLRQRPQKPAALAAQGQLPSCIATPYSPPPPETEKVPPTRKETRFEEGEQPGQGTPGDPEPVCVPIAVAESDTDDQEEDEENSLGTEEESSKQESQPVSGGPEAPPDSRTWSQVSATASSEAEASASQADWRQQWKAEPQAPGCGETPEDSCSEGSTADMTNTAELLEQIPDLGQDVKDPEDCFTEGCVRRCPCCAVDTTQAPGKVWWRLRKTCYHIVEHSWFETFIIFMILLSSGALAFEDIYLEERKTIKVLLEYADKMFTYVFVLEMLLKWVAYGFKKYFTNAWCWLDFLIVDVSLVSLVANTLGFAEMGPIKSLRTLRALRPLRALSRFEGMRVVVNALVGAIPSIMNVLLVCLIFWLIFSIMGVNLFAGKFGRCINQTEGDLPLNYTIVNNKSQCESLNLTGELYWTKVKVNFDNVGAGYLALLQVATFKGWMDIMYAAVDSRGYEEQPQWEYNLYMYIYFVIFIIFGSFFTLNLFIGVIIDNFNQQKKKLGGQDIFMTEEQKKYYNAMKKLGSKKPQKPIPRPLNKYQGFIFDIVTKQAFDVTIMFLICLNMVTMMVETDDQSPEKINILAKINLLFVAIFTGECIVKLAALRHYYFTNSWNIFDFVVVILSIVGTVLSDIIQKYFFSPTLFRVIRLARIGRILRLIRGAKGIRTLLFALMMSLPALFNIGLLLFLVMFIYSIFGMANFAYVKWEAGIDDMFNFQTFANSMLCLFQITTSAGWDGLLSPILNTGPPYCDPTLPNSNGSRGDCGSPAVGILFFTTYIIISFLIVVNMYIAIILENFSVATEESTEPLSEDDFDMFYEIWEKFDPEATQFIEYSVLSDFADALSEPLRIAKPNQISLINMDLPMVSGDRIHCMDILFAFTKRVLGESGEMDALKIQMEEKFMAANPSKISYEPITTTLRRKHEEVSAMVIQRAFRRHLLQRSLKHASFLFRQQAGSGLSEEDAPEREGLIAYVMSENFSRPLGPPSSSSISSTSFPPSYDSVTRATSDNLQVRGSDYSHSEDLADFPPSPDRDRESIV
- Assay remarks: Sodium Influx Assay (Flux), NaV1.5
- Measurement setup: read-out: Flux NaV1.5 IC50; Trex HEK293 cells, ANG2 dye, inactivated state
# maps each entry to its pIC50
# pIC50 is unitless: minus log10 of the molar concentration; print number only

Solved entries:
>>> measured_number("O=S(=O)(Nc1cnsc1)c1c(F)cc(NCc2c(F)cccc2CN2CCC2)cc1F")
4.76
>>> measured_number("C[C@H](Nc1cc(F)c(S(=O)(=O)Nc2cscn2)cc1Cl)c1ccccc1Cl")
5.35
>>> measured_number("O=S(=O)(Nc1cccc(F)n1)c1cc(Cl)c(NCc2c(F)cccc2CN2CCC2)cc1F")
5.01

Kindly consider the entry below.
Q: State its pIC50 for this compound: C[C@H](Nc1ccc(S(=O)(=O)Nc2cscn2)c(F)c1Cl)c1cc(Cl)ccc1F
Result: 4.59

* * *

# maps each entry to its IC50
- System: NaV1.1 (Homo sapiens (Human), UniProt P35498)
- Assay remarks: Sodium Influx Assay (Flux), NaV1.1;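 further: channels co-expressed with human β1 subunit and held open by modulators, cells exposed to compounds for one hour at room temperature, IC50 from percent inhibition of influx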
- Type: cell-based
- Measurement setup: Trex HEK293 cells, ANG2 dye, inactivated state
Counter-ions that a name gives are not always drawn.
Supply the numeric figure in µM, leaving out any unit text.

Solved entries:
>>> measured_number("O=S(=O)(Nc1cscn1)c1c(F)cc(NCc2c(F)cccc2CN2CC(O)(C(F)(F)F)C2)cc1F [Example 176, formate]")
5.75
>>> measured_number("COC1(C)CN(Cc2cccc(F)c2CNc2cc(F)c(S(=O)(=O)Nc3cscn3)c(F)c2)C1 [Example 172, formate]")
25.8
>>> measured_number("O=S(=O)(Nc1ncccn1)c1c(F)cc(NCc2c(F)cccc2CN2CCC2)cc1F [Example 145, 2,2,2-trifluoroacetate]")
30

Q: State its IC50 for this compound: Cc1ccc(F)cc1CNc1cc(F)c(S(=O)(=O)Nc2cscn2)cc1Cl [Example 147]
Result: 3.43

* * *

- System: NaV1.1 (Homo sapiens (Human))
- Assay remarks: Sodium Influx Assay (Flux), NaV1.1
- Type: cell-based
- Measurement setup: Trex HEK293 cells, ANG2 dye, inactivated state
Where a name gives a salt, the structure may show the parent alone.
# maps each entry to its pIC50
# pIC50 is unitless: minus log10 of the molar concentration; print number only

Q: # return pIC50 for O=S(=O)(Nc1nccs1)c1cc(Cl)c(NCc2cccc3ccncc23)cc1F [Example 61] , test system: NaV1.1 (Homo sapiens (Human))
Result: 5.95

Q: # return pIC50 for Cc1cc(NCc2c(F)cccc2CN2CC(C)(C)C2)c(F)c(F)c1S(=O)(=O)Nc1cscn1 [Example 314, 2,2,2-trifluoroacetate] , test system: NaV1.1 (Homo sapiens (Human))
Result: 4.52

Q: # return pIC50 for O=S(=O)(Nc1ncns1)c1ccc(NCc2ccccc2)c(Cl)c1 [Example 33] , test system: NaV1.1 (Homo sapiens (Human))
Result: 5.52

Q: # return pIC50 for C[C@H](Nc1cc(F)c(S(=O)(=O)Nc2nccs2)cc1Cl)c1cc(Cl)cc(Cl)c1 [Example 51] , test system: NaV1.1 (Homo sapiens (Human))
Result: 5.37

Q: # return pIC50 for C[C@H](Nc1cc(F)c(S(=O)(=O)Nc2cscn2)cc1Cl)c1cc(O)ccc1F [Example 234] , test system: NaV1.1 (Homo sapiens (Human))
Result: 5.34

Q: # return pIC50 for O=S(=O)(Nc1nccs1)c1cc(Cl)c(NC(c2ccccc2)C2CC2)cc1F (centres unmarked) [Example 100] , test system: NaV1.1 (Homo sapiens (Human))
Result: 6.18

Q: # return pIC50 for C[C@H](Nc1cc(F)c(S(=O)(=O)Nc2cscn2)cc1Cl)c1cc(OCC2COC2)ccc1F [Example 236] , test system: NaV1.1 (Homo sapiens (Human))
Result: 4.52

Q: # return pIC50 for COC1CN(Cc2cccc(F)c2CNc2cc(F)c(S(=O)(=O)Nc3cscn3)cc2Cl)C1 [Example 248, 2,2,2-trifluoroacetate] , test system: NaV1.1 (Homo sapiens (Human))
Result: 4.67

Q: # return pIC50 for CC[C@@H](Nc1ccc(S(=O)(=O)Nc2ncns2)cc1Cl)c1ccccc1 [Example 31] , test system: NaV1.1 (Homo sapiens (Human))
Result: 5.21

Q: # return pIC50 for O=S(=O)(Nc1ccon1)c1ccc(NCc2c(F)cccc2CN2CCCC2)c(F)c1F [Example 294, 2,2,2-trifluoroacetate] , test system: NaV1.1 (Homo sapiens (Human))
Result: 4.52

Q: # return pIC50 for C[C@H](Nc1cc(F)c(S(=O)(=O)Nc2nccs2)cc1Cl)c1ccccc1Cl [Example 78] , test system: NaV1.1 (Homo sapiens (Human))
Result: 5.38

Q: # return pIC50 for CN(C)Cc1ccccc1CNc1cc(F)c(S(=O)(=O)Nc2cscn2)c(F)c1 [Example 271] , test system: NaV1.1 (Homo sapiens (Human))
Result: 4.52

Q: # return pIC50 for C[C@H](Nc1cc(F)c(S(=O)(=O)Nc2cscn2)cc1Cl)c1cc(CCN2CCC2)ccc1F [Example 257, formate] , test system: NaV1.1 (Homo sapiens (Human))
Result: 5.21

Q: # return pIC50 for Cc1c(NCc2c(Cl)ccc(F)c2CN2CCC2)cc(F)c(S(=O)(=O)Nc2cscn2)c1F [Example 313, 2,2,2-trifluoroacetate] , test system: NaV1.1 (Homo sapiens (Human))
Result: 5.43

Q: # return pIC50 for O=S(=O)(Nc1cccc(F)n1)c1cc(Cl)c(NCc2ccccc2CN2CCC2)cc1F [Example 200] , test system: NaV1.1 (Homo sapiens (Human))
Result: 5.35

* * *

- System: NaV1.5 (Homo sapiens (Human), UniProt Q14524)
- Assay remarks: Sodium Influx Assay (Flux), NaV1.5
- Measurement setup: read-out: Flux NaV1.5 IC50; Trex HEK293 cells, ANG2 dye, inactivated state
Structures can show the parent of a compound that is named as a salt.
# maps each entry to its IC50
The number alone won't do; follow it with the unit.

Solved entries:
>>> result("C[C@H](Nc1cc(F)c(S(=O)(=O)Nc2nccs2)cc1Cl)c1cccc(Br)c1")
"9.68 µM"
>>> result("C[C@H](Nc1cc(F)c(S(=O)(=O)Nc2nccs2)c(F)c1)c1ccccc1F")
"8.49 µM"
>>> result("O=S(=O)(Nc1nccs1)c1cc(Cl)c(OCc2cccc3ccncc23)cc1F")
"30 µM"

Q: State its IC50 for this molecule: O=S(=O)(Nc1cscn1)c1cc(Cl)c(N[C@H]2C[C@H](N3CCC3)c3ccccc32)cc1F [Example 264, formate]
Result: 30 µM

* * *

- System: NaV1.6 (Homo sapiens (Human), UniProt Q9UQD0)
- Assay remarks: Sodium Influx Assay (Flux), NaV1.6;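 further: Tetracycline-induced cells, compounds applied for one hour at room temperature with modulators holding channels open, IC50 from percent inhibition of sodium influx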
- Format: cell-based
- Measurement setup: Trex HEK293 cells, ANG2 dye, inactivated state
Counter-ions that a name gives are not always drawn.
Measured metric: IC50 (nM)
Supply the numeric figure in nM, leaving out any unit text.

Solved entries:
>>> measured_number("O=S(=O)(Nc1cscn1)c1cc(Cl)c(OCc2c(F)ccc(F)c2CN2CCC2)cc1F")
2820
>>> measured_number("C[C@H](Nc1cc(F)c(S(=O)(=O)Nc2cscn2)cc1Cl)c1cc(OC2COC2)ccc1F")
3020
>>> measured_number("C[C@H](Nc1cc(F)c(S(=O)(=O)Nc2cscn2)cc1Cl)c1cc(CN2CCCCC2)ccc1F [Example 256, formate]")
1220
>>> measured_number("O=S(=O)(Nc1nccs1)c1ccc(NC2(c3ccccc3)COC2)c(Cl)c1")
2910
>>> measured_number("O=S(=O)(Nc1cscn1)c1cc(F)c(NCc2c(F)cccc2CN2CCC2)cc1F")
605

Q: State its IC50 for this compound: CCC(Nc1cc(F)c(S(=O)(=O)Nc2cccc(F)n2)cc1Cl)c1ccccc1 (stereo not shown)
Result: 4060

Q: State its IC50 for this compound: CC[C@H](Nc1cc(F)c(S(=O)(=O)Nc2nccs2)cc1Br)c1ccccc1
Result: 120

Q: State its IC50 for this compound: O=S(=O)(Nc1nccs1)c1cc(Cl)c(NC2(c3ccc(F)cc3)CC2)cc1F
Result: 347

Q: State its IC50 for this compound: C[C@@H](Oc1ccc(S(=O)(=O)Nc2ncns2)cc1Cl)c1ccccc1 (racemic)
Result: 8600

Q: State its IC50 for this compound: O=S(=O)(Nc1cscn1)c1c(F)cc(NCc2cc(CN3CCC3)ccc2F)cc1F [Example 195, formate]
Result: 688

Q: State its IC50 for this compound: O=S(=O)(Nc1cscn1)c1c(F)cc(NCc2c(F)cccc2CN2CC3(C2)CC(F)(F)C3)cc1F [Example 160, formate]
Result: 64

Q: State its IC50 for this compound: C[C@H](Nc1cc(F)c(S(=O)(=O)Nc2nccs2)cc1F)c1ccccc1F
Result: 175
